- TARGET OF ASSAY: UniProt P41145
- Sequence (P41145 whole entry): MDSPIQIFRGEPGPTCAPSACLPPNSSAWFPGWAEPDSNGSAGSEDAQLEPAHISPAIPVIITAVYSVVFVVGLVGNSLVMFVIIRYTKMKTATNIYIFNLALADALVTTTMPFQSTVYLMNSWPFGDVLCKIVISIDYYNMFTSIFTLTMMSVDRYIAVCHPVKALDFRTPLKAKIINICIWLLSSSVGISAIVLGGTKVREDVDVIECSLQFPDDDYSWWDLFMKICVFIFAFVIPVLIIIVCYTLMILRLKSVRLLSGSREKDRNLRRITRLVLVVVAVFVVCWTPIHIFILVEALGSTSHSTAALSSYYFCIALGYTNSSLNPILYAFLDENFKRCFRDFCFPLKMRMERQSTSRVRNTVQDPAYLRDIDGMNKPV
- TEST DETAILS: Antagonist activity at human kappa opioid receptor expressed in CHO cells assessed as inhibition of U50488-induced […]GTPgammaS binding after 60 mins by scintillation counting
- Assay type: functional, cell-based
Active and inactive are the calls of the source. No cut-off for these calls is given here.
PARAMETER: Activity

>  <SMILES REPRESENTATION>
Oc1ccccc1CNc1ccc2c(c1)[C@@]13CCCC[C@H]1[C@@H](C2)N(CC1CCC1)CC3

>  <PARAMETER>
Activity

>  <DATA VALUE>
inactive

$$$$
>  <SMILES REPRESENTATION>
Oc1cccc(CNc2ccc3c(c2)C[C@@H]2[C@@H]4CCCC[C@]34CCN2CC2CC2)c1

>  <PARAMETER>
Activity

>  <DATA VALUE>
inactive

$$$$
>  <SMILES REPRESENTATION>
Oc1ccc(CNc2ccc3c(c2)[C@@]24CCCC[C@H]2[C@@H](C3)N(CC2CC2)CC4)cc1

>  <PARAMETER>
Activity

>  <DATA VALUE>
inactive

$$$$
>  <SMILES REPRESENTATION>
COc1cccc(CNc2ccc3c(c2)[C@@]24CCCC[C@H]2[C@@H](C3)N(CC2CCC2)CC4)c1

>  <PARAMETER>
Activity

>  <DATA VALUE>
inactive

$$$$
